All figures here come from paper PMC9722750.

- test.summary: in vitro
- Type: cell-based
- experimental.parameters: human

# chemical.structure, IC50 at 48 h
rows = [
    ("CCCCCCCc1c(O)cc(CC=C(C)C)c(O)c1C=O", "39.7 µM"),
]
